Target: Metabotropic glutamate receptor 2 (Homo sapiens, UniProt Q14416)
Sequence (Q14416 whole entry): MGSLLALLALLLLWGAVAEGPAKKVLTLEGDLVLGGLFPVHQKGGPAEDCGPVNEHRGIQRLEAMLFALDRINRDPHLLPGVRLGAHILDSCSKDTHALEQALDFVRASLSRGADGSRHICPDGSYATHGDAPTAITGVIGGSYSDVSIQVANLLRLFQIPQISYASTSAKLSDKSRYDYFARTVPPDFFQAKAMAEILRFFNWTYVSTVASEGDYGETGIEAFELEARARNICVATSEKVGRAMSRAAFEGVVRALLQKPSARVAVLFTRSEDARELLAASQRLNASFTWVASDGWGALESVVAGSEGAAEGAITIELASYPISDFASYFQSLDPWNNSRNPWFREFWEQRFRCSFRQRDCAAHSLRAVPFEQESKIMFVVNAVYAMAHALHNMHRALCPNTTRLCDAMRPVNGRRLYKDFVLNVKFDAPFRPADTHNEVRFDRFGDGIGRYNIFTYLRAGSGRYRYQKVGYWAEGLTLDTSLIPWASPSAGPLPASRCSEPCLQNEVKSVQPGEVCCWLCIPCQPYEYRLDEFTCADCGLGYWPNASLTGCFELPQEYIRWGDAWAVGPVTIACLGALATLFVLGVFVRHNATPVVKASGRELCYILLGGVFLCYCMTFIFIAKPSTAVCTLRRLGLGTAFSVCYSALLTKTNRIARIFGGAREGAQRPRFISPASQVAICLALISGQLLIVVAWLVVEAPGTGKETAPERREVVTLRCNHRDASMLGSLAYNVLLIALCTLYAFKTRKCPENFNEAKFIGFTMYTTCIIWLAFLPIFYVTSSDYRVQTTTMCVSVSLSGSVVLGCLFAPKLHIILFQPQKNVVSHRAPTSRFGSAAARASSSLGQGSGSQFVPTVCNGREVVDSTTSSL
Test: Compound was tested for the inhibition of metabotropic glutamate receptor 2 (mGluR2).
metric: EC50 (nM)

{"compound": "N[C@@]1(C(=O)O)CC[C@@H](C(=O)O)C1 (racemic)", "subject-of-test": "Metabotropic glutamate receptor 2 (Homo sapiens, UniProt Q14416)", "value-reported": 2000}

###

Entries and their pEC50
Biological target: Metabotropic glutamate receptor 5 (Homo sapiens)
Sequence (P41594 whole entry): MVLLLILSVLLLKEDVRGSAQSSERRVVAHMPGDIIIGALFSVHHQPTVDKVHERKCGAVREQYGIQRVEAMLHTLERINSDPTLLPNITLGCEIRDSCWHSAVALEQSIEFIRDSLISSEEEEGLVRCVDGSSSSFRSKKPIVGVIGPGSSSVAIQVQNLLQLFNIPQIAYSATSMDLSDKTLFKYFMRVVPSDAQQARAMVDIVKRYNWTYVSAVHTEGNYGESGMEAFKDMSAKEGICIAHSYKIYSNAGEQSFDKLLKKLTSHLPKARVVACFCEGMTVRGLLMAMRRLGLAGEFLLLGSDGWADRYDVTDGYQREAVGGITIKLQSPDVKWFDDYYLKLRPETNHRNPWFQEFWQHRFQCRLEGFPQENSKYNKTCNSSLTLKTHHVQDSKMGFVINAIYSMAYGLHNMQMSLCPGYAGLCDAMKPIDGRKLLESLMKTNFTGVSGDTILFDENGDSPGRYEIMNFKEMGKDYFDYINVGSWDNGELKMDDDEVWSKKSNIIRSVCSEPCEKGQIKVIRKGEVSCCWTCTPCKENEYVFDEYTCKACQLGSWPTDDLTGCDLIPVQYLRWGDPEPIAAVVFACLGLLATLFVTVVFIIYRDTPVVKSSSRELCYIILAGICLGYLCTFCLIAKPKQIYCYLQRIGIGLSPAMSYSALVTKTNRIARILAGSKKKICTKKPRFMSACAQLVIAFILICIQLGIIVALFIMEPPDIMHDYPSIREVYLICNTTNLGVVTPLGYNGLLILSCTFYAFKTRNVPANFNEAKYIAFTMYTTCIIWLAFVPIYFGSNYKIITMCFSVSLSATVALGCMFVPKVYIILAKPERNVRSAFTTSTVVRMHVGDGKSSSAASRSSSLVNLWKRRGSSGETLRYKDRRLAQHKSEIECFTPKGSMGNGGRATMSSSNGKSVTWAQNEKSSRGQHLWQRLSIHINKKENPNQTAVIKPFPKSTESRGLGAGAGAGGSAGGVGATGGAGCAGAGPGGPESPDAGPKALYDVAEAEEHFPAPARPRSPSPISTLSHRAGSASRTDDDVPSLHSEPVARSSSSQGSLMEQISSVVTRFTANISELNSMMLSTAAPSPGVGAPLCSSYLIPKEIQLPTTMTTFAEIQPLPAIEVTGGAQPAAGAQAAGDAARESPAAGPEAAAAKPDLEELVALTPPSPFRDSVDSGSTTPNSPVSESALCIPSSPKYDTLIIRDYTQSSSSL
Assay: Compound was tested for the inhibition of Metabotropic glutamate receptor 5
pEC50: −log10 of the molar value.
metric: pEC50

{"molecule": "N[C@@]1(C(=O)O)CC[C@@H](C(=O)O)C1 (racemic)", "subject-of-test": "Metabotropic glutamate receptor 5 (Homo sapiens)", "operator": "=", "value-reported": 4.64}
{"molecule": "N[C@@]1(C(=O)O)C[C@@H]2C[C@H]1[C@H]2C(=O)O", "subject-of-test": "Metabotropic glutamate receptor 5 (Homo sapiens)", "operator": "=", "value-reported": 6.14}
{"molecule": "N[C@@]1(C(=O)O)C[C@H]2C[C@@H]1[C@H]2C(=O)O", "subject-of-test": "Metabotropic glutamate receptor 5 (Homo sapiens)", "operator": "<", "value-reported": 3.00}
{"molecule": "N[C@@]1(C(=O)O)C[C@H]2C[C@@H]1[C@@H]2C(=O)O", "subject-of-test": "Metabotropic glutamate receptor 5 (Homo sapiens)", "operator": "=", "value-reported": 4.24}
{"molecule": "N[C@@]1(C(=O)O)CC[C@H](C(=O)O)C1", "subject-of-test": "Metabotropic glutamate receptor 5 (Homo sapiens)", "operator": "<", "value-reported": 3.52}
{"molecule": "N[C@@]1(C(=O)O)C[C@@H]2C[C@H]1[C@@H]2C(=O)O", "subject-of-test": "Metabotropic glutamate receptor 5 (Homo sapiens)", "operator": "=", "value-reported": 4.04}

The measured values listed here are drawn from ChEMBL document CHEMBL1131214.
